protocolDescription: Bi-directional permeability, CACO-2
Assay type: in vitro ADME
experimentalContext: human, Caco-2, Papp × 10^−6 cm/s (plate certification)
quantityKind: Papp (×10⁻⁶ cm/s)
Answers are plain numbers, in ×10⁻⁶ cm/s.

Using the record for CC(C)NCC(O)COc1cccc2ccccc12 (stereo not shown) [Propranolol, reference compound] , report its Papp.
20

###

assaySystem: Bombyx mori EcR (VP16 fusion, CVBE switch construct) (Bombyx mori, UniProt P49881)
Sequence (P49881 86-606): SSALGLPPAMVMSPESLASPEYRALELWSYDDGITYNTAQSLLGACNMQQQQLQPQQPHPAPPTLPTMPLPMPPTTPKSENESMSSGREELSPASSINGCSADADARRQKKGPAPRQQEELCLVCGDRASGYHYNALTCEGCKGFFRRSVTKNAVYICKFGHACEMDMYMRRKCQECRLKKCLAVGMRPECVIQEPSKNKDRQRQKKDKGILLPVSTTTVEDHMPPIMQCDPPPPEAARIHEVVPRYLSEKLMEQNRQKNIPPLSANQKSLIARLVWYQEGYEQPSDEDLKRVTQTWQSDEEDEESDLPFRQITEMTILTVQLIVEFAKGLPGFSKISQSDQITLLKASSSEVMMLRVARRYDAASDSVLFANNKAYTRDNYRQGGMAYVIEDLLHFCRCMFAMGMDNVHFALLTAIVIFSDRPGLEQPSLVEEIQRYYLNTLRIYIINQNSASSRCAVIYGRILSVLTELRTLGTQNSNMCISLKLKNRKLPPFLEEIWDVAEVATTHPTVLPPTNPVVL
Sequence (P19793 whole entry partner, the tested form may be a part): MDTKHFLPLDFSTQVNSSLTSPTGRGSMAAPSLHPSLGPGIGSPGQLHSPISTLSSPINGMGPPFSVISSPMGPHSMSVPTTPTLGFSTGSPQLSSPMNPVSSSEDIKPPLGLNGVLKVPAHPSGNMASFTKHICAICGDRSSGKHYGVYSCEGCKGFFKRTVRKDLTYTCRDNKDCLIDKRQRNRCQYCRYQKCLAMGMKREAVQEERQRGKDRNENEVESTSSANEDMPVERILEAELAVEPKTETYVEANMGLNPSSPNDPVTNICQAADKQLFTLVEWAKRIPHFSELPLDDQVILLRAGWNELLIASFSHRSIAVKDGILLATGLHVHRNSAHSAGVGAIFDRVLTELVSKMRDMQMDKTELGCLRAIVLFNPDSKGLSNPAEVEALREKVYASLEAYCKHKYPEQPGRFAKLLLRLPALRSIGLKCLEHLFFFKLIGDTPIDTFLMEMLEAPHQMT
protocolDescription: Z3 Assay (HEK-293 cells with CVBE and 6XEcRE LacZ, β-galactosidase reporter)
experimentalContext: 33 uM ligand; ligand treated / DMSO treated cells; average of two wells
For each entry below, report its Fold Induction, Z3 Assay, 33 uM value.

Examples from the recorded data:
1. Cc1cc(C)cc(C(=O)N(NC(=O)c2ccc3c(c2)OC(C)O3)C(C)(C)C)c1 (stereo not shown) [RG-101511] | 487
2. CCc1ccc(C(=O)NN(C(=O)c2cc(C)ccc2[N+](=O)[O-])C(C)(C)C)cc1 [RG-101398] | 403
3. COc1cc(C(=O)N(NC(=O)c2cccc(OC)c2C)C(C)(C)C)ccc1C [RG-100768] | 425
4. CCc1ccc(C(=O)NN(C(=O)c2cc(C)c(C)c(Cl)c2)C(C)(C)C)cc1 [RG-101863] | 374
5. COc1cc(Cl)ccc1C(=O)N(NC(=O)c1cccc(OC)c1C)C(C)(C)C [RG-100848] | 26
6. CCc1c(OC)cccc1C(=O)NN(C(=O)c1cc(C)nc(Cl)c1)C(C)(C)C [RG-100667] | 238
7. COc1ccc(C)cc1C(=O)N(NC(=O)c1cccc(OC)c1C)C(C)(C)C [RG-100766] | 474
8. COc1cccc(C(=O)NN(C(=O)c2cc(C)cc(Br)c2)C(C)(C)C)c1C [RG-101353] | 439
9. Cc1c(C(=O)NN(C(=O)c2cccc(F)c2)C(C)(C)C)ccc2c1CCCO2 [RG-115278] | 1225
10. CC(C)(C)N(NC(=O)c1ccc2c(c1)OCO2)C(=O)c1ccc(F)cc1Cl [RG-101048] | 283

Below are some compounds; for each one, tell me its Fold Induction, Z3 Assay, 33 uM.
1. CCc1c(OC)cccc1C(=O)NN(C(=O)c1cc(F)cc(C(F)(F)F)c1)C(C)(C)C [RG-115088]
2. COc1ccc(Cl)cc1C(=O)N(NC(=O)c1ccc2c(c1C)CCCO2)C(C)(C)C [RG-115551]
3. CCc1ccc(C(=O)NN(C(=O)c2ccccc2[N+](=O)[O-])C(C)(C)C)cc1 [RG-101013]
4. CCc1c(OC)cccc1C(=O)NN(C(=O)c1ccc2c(c1)OCO2)C(C)(C)C [RG-100699]
5. CCc1c(C(=O)NN(C(=O)c2cc(F)ccc2F)C(C)(C)C)ccc2c1OCCO2 [RG-115508]
6. Cc1ccc(F)c(C(=O)N(NC(=O)c2ccc3c(c2C)CCCO3)C(C)(C)C)c1 [RG-115499]

1. 228
2. 470
3. 846
4. 415
5. 680
6. 641

Below are some compounds; for each one, tell me its Fold Induction, Z3 Assay, 33 uM.
1. COc1ccccc1C(=O)N(NC(=O)c1ccc2c(c1)OCCO2)C(C)(C)C [RG-100492]
2. COc1cccc(C(=O)NN(C(=O)c2cc(Cl)nc(Cl)c2)C(C)(C)C)c1C [RG-100394]

143
11

Using the record for COc1cc(C)cc(C(=O)N(NC(=O)c2cccc(OC)c2C)C(C)(C)C)c1 [RG-100767] , report its Fold Induction, Z3 Assay, 33 uM.
371

FYI, the data here is from patent US9102648B1.
